Where do these numbers come from? They come from PubChem BioAssay.

- TEST METHOD NOTES: inhibitors of the yeast RAM network, pilot screen, dse1pr::URA3 reporter, 5-FOA selection (AID 869);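 note: 0% = DMSO wells with no growth and 100% = 10 µM 1-NA-PP1 with full growth; RAM network block rescues cells from 5-FOA so hits raise OD615 growth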
- SETTINGS: S. cerevisiae dse1pr::URA3 5-FOA growth, OD615, 2 d; at 10 µM; hits give high values; strain carries analog-sensitive mutant Cbk1 kinase
ASSAY ENDPOINT: inhibition (%)
Use % as the unit, but write only the number.

Past entries and their recorded results:
CN(C)/C=N/c1c(C#N)cnn1-c1nc2ccccc2s1 = 1.28
CCN(CCNS(=O)(=O)c1ccc2[nH]c(=O)sc2c1)c1ccccc1 = 0.01
COc1ccc(C2(O)CCN(C(=O)c3ccc4c(c3)OCO4)CC2)cc1 = 0.965
Cc1ccccc1CN1C(=O)C(O)(CC(=O)c2ccncc2)c2ccccc21 (stereo not drawn) = 1.28
Cc1ccc(C(=O)NCCCn2ccnc2)o1 = -0.265

[in] Give the measured inhibition of CCC(CC)C(=O)Nc1cc(C)c2c(=O)oc3ccccc3c2n1 .
[out] 2.33

[in] Now the same for COc1ccc(OC)c(N(CC(=O)NCCSc2ccccc2)S(C)(=O)=O)c1
[out] 0.23
